# tested-system: human PDHK2 (hPDHK2) (Homo sapiens (Human), UniProt Q15119)
# experiment: Inhibitory action of PDHK activity in vitro (kinase reaction, residual PDH activity measured)
# Type: biochemical
# setup-conditions: PDHK inhibitory activity, class symbol of IC50
pIC50: −log10 of the molar value.
result-type: pIC50

Consider the following illustrative entries.
NCCOc1ccc2c(c1)C(O)(C(F)(F)F)c1ccccc1-2 (stereo not shown) = < 6.00
OCC1(n2cc(-c3cc(F)cc4c3-c3ccccc3[C@]4(O)C(F)(F)F)cn2)CCCCC1 (stereo in doubt) = > 7.00
Cn1cc(-c2cccc3c2-c2ccccc2C3(O)C(F)(F)F)cn1 (stereo not shown) = 6.00 to 7.00
CC(=O)c1cc(-c2cnn(C)c2)cc2c1-c1ccccc1C2(O)C(F)(F)F (stereo not shown) = > 7.00
O=C1CCC(COc2ccc3c(c2)C(O)(C(F)(F)F)c2ccccc2-3)N1CCO (stereo not shown) = 6.00 to 7.00

Lookup result for O=C(O)CCCOc1cc(Cl)c2c(c1)C(O)(C(F)(F)F)c1ccccc1-2 (stereo not shown) [compound 478] ; measured pIC50: 6.00 to 7.00

Quick note, pIC50 for Cc1cc(-c2cnn(CC(N)=O)c2)c2c(c1)C(O)(C(F)(F)F)c1ccccc1-2 (stereo not shown) landed at > 7.00

The molecule listed as CC(C)(C)Cn1cc(-c2cccc3c2-c2ccccc2C3(O)C(F)(F)F)cn1 (stereo not shown) shows pIC50 equal to > 7.00

So for CN(CCO)C(=O)c1cc(-c2cnn(C)c2)c2c(c1)C(O)(C(F)(F)F)c1ccccc1-2 (stereo not shown) , the logged pIC50 turned out to be 6.00 to 7.00

Reported pIC50 ( O=C(c1cnc2c(c1)C(O)(C(F)(F)F)c1ccccc1-2)N1CCC1 (stereo not shown) ) = 6.00 to 7.00

Memo: OCCn1cc(-c2cc(F)cc3c2-c2ccccc2[C@]3(O)C(F)(F)F)cn1 (stereo in doubt) , reported pIC50: > 7.00

Per the record, O=C(O)CCCn1cc(-c2cc(F)cc3c2-c2ccccc2[C@]3(O)C(F)(F)F)cn1 (stereo in doubt) has pIC50 of > 7.00

Sure, the documented pIC50 for O=C(c1cccc2c1-c1ccccc1C2(O)C(F)(F)F)C1CC1 (stereo not shown) is < 6.00

The recorded pIC50 for entry O=C(O)c1ccc(-c2cc(-c3cccnc3)c3c(c2)C(O)(C(F)(F)F)c2ccccc2-3)cc1 (stereo not shown) equals > 7.00

Per the record, Cc1cc(C(=O)N2CC(OCC(N)=O)C2)cc2c1-c1ccccc1C2(O)C(F)(F)F (stereo not shown) has pIC50 of 6.00 to 7.00

Looking up CNC(=O)Cn1cc(-c2cccc3c2-c2ccccc2C3(O)C(F)(F)F)cn1 (stereo not shown) , I see its pIC50 listed as > 7.00
